target: plasma purified human complement protein C3 (human) (UniProt P01024); experiment: cell-based or functional assay
Sequence (P01024 23-667, chain 1 of 2): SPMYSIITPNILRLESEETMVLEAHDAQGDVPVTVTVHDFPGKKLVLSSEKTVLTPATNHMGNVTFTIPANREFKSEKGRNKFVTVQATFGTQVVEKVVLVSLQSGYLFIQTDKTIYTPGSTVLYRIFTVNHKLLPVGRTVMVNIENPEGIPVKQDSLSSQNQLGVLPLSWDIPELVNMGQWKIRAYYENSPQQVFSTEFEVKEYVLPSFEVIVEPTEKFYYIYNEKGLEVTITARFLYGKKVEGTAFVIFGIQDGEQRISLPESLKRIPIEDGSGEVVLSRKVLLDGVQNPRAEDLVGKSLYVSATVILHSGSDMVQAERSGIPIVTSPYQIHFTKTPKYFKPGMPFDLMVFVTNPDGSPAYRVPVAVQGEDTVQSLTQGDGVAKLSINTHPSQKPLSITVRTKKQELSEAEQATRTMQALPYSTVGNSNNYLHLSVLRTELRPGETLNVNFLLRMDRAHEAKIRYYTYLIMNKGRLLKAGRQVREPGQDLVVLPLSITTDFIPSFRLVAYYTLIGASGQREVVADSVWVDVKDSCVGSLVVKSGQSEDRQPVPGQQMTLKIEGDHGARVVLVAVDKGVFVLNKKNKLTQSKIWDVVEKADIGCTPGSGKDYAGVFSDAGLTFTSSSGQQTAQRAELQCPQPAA
Sequence (P01024 672-1663, chain 2 of 2): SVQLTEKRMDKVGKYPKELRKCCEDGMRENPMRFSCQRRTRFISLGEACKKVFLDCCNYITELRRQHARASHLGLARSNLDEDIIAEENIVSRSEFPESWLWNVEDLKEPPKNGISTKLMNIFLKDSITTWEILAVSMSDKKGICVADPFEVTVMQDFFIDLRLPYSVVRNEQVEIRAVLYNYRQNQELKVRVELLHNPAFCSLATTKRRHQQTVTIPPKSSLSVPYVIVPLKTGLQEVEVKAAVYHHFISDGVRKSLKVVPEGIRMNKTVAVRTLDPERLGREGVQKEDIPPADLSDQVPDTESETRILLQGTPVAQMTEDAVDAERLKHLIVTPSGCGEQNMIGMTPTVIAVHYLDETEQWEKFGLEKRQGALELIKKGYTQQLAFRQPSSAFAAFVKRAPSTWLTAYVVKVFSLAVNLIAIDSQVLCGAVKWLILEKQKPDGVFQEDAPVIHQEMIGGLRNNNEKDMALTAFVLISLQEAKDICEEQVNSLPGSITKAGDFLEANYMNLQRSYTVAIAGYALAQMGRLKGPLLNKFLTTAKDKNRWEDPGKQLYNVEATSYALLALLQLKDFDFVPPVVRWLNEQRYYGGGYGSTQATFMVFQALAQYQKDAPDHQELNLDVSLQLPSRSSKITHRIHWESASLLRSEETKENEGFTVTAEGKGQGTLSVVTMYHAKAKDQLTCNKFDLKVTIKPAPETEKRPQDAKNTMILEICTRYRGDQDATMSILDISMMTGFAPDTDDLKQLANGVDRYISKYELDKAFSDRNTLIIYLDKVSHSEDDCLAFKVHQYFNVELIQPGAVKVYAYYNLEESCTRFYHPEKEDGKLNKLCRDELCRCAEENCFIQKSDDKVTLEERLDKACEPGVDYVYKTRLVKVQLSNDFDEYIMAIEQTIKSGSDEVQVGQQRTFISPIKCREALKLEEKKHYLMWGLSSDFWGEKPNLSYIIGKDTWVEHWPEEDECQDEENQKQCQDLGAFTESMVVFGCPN
OBSERVED PROPERTY: EC50 of hC3 cleavage (nM)
Give the quantity in nM, number only.

Past entries and their recorded results:
binder="MTSP-1 Q38H/I41S/D60bA/F60eV/ins97aE/F97T/T98G/F99L/C122S/Q175L/Q192V (enzyme) VVGGTDADEGEWPWQVSLHALGHGHSCGASLISPNWLVSAAHCYIDARGVRYSDPTQWTAFLGLHDQSQRSAPGVQERRLKRIISHPFFNDTEGLDYDIALLELEKPAEYSSMVRPISLPDASHVFPAGKAIWVTGWGHTQYGGTGALILQKGEIRVINQTTCENLLPQLITPRMMCVGFLSGGVDSCVGDSGGPLSSVEADGRIFQAGVVSWGDGCAQRNKPGVYTRLPLFRDWIKENTGV" observed_property="EC50 of hC3 cleavage" number=10.9
binder="MTSP-1 Q38H/I41S/D60bT/F93L/ins97aV/F97D/T98P/F99L/S115N/C122S/Q192V/F208L/D217Q (enzyme) VVGGTDADEGEWPWQVSLHALGHGHSCGASLISPNWLVSAAHCYIDTRGFRYSDPTQWTAFLGLHDQSQRSAPGVQERRLKRIISHPLFNDDVPLDYDIALLELEKPAEYNSMVRPISLPDASHVFPAGKAIWVTGWGHTQYGGTGALILQKGEIRVINQTTCENLLPQQITPRMMCVGFLSGGVDSCVGDSGGPLSSVEADGRILQAGVVSWGQGCAQRNKPGVYTRLPLFRDWIKENTGV" observed_property="EC50 of hC3 cleavage" number=45.8

Attention now turns to another entry.
Input MTSP-1 Q38H/I41A/D60bK/F60eK/Y60gW/F97T/ins97aE/T98G/F99L/C122S/Q175L/Q192D (enzyme) VVGGTDADEGEWPWQVSLHALGHGHACGASLISPNWLVSAAHCYIDKRGKRWSDPTQWTAFLGLHDQSQRSAPGVQERRLKRIISHPFFNDTEGLDYDIALLELEKPAEYSSMVRPISLPDASHVFPAGKAIWVTGWGHTQYGGTGALILQKGEIRVINQTTCENLLPQLITPRMMCVGFLSGGVDSCDGDSGGPLSSVEADGRIFQAGVVSWGDGCAQRNKPGVYTRLPLFRDWIKENTGV . Output EC50 of hC3 cleavage: 22.3
